target: GIRK1 and GIRK2 (Homo sapiens, UniProt P48051+P48549); construct: expressed in transfected cells; host or cells: HEK-293; assay: ML297 concentration response curves by Tl+ flux assay; format: cell-based; settings: dye Thallos; same procedure (FluxOR Red kit with background suppressor)
assay_metric: EC50
Form entry: enter the amount, then its unit.

q: GET EC50 | system: GIRK1 and GIRK2 (Homo sapiens, UniProt P48051+P48549) | item: Cc1cc(NC(=O)Nc2ccc(F)c(F)c2)n(-c2ccccc2)n1 [ML297]
a: 272 nM

* * *

Test: Determination of photochemical properties of saponified dyes
Format: physicochemical
Details: at λmax; after saponification; 150 mM KCl, 10 mM HEPES, 50 μM EDTA, pH = 7.22
Protocol: Evaluation of the photochemical properties of the active Thallium sensing species was accomplished by saponifying 10 μL of each pro-dye stock solution by incubating with 90 μL of 0.1 M KOH for 20 min at 37° C. with the exception of 8b which was treated with 1% NH4OH for 1 h at 37° C. […] Absorbance and fluorescence emission spectra were recorded on a Molecular Devices Spectromax M5 using polystyrene cuvettes with path length=1 cm at 23° C. […]
Could you please report measured ε (molar absorptivity) for the items listed next?
Numbers only, in M⁻¹ cm⁻¹.

Before answering, review these 4 worked examples.
compound	ε (molar absorptivity), M⁻¹ cm⁻¹
COc1cc(NC(=O)c2ccc3c(c2)C(=O)OC32c3ccc(OC(C)=O)cc3Oc3cc(N4CCC4)ccc32)ccc1N(CC(=O)OCOC(C)=O)CC(=O)OCOC(C)=O (centres unmarked) [Compound 8j]	56000
COc1cc(NC(=O)c2ccc3c(c2)C(=O)OC32c3ccc(OC(C)=O)cc3Oc3cc(N4CCCCC4)ccc32)ccc1N(CC(=O)OCOC(C)=O)CC(=O)OCOC(C)=O (centres unmarked) [Compound 8m]	48000
COc1cc(NC(=O)c2ccc3c(c2)C(=O)OC32c3ccc(OC(C)=O)cc3Oc3cc(N4CC(F)(F)C4)ccc32)ccc1N(CC(=O)OCOC(C)=O)CC(=O)OCOC(C)=O (centres unmarked) [Compound 8k]	66000
COc1cc(NC(=O)c2ccc3c(c2)C(=O)OC32c3ccc(N)cc3Oc3cc(OC(C)=O)ccc32)ccc1N(CC(=O)OCOC(C)=O)CC(=O)OCOC(C)=O (centres unmarked) [Compound 8a]	57000

For the next question, use this compound.
q: Please supply the value of reported ε (molar absorptivity) for the item CCN(CC)c1ccc2c(c1)Oc1cc(OC(C)=O)ccc1C21OC(=O)c2cc(C(=O)Nc3ccc(N(CC(=O)OCOC(C)=O)CC(=O)OCOC(C)=O)c(OC)c3)ccc21 (centres unmarked) [Compound 8d]
a: 55000

* * *

Molecular target: GIRK1 and GIRK2 (Homo sapiens, UniProt P48051+P48549)
Construct: expressed in transfected cells; host or cells: HEK-293
Sequence (P48549 1-501): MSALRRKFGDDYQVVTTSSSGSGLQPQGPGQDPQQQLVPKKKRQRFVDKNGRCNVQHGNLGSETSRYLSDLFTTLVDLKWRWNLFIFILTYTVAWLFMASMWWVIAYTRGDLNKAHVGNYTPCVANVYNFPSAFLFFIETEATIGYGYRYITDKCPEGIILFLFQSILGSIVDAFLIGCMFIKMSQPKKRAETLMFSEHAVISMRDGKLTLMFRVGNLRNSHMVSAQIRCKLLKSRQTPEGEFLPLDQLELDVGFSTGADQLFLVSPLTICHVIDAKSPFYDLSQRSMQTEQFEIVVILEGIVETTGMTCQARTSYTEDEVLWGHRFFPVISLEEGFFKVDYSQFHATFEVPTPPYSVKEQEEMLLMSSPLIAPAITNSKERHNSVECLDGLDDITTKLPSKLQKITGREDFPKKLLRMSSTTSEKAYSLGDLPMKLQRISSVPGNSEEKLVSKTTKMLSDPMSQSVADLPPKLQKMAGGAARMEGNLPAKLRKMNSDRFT
Sequence (P48051 1-423): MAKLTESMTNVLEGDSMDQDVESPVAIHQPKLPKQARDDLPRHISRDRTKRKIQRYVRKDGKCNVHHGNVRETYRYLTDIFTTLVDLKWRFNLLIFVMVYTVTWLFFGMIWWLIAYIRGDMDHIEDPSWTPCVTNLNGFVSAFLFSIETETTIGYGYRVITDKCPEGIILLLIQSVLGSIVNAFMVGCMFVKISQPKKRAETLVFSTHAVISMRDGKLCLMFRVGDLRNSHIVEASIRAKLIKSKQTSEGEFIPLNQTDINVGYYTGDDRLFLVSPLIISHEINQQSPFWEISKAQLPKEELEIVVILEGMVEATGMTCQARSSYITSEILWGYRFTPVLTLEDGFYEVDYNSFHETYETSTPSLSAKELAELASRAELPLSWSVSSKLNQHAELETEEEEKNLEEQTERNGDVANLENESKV
Test: ML297 concentration response curves by Tl+ flux assay
Type: cell-based
Conditions: dye 8c (5 μM, 1 h); FluxOR Red kit with background suppressor; 1 mM Tl^+
From the text: ML297 concentration response curves—In general, all concentration-response data were collected on a WaveFront Biosciences Panoptic 2. Thallos treated cells were imaged using 482/35 nm excitation and 536/40 nm emission filters. […] The fluorescence intensity values of the first 6 time points for each well were averaged and the fluorescence intensity for all time points in the well was divided by this value to provide F/Fo for each time point. […]
assay_metric: pEC50
Answers are plain numbers, as −log10 of the molar value.

q: Please supply the value of reported pEC50 for the item "Cc1cc(NC(=O)Nc2ccc(F)c(F)c2)n(-c2ccccc2)n1"
a: 6.59

* * *

assay: Determination of photochemical properties of saponified dyes; assay type: physicochemical; settings: after saponification; 150 mM KCl, 10 mM HEPES, 50 μM EDTA, pH = 7.22
Could you please report measured λmax (absorption maximum) for the items listed next?
One number for each entry, in nm.

Before answering, review these 2 worked examples.
molecule	λmax (absorption maximum), nm
COc1cc(NC(=O)c2ccc3c(c2)C(=O)OC32c3ccc(OC(C)=O)cc3Oc3cc(N4CC(F)(F)C4)ccc32)ccc1N(CC(=O)OCOC(C)=O)CC(=O)OCOC(C)=O (stereo not drawn) [Compound 8k]	506
COc1cc(NC(=O)c2ccc3c(c2)C(=O)OC32c3ccc(OC(C)=O)cc3Oc3cc(N4CCCCC4)ccc32)ccc1N(CC(=O)OCOC(C)=O)CC(=O)OCOC(C)=O (stereo not drawn) [Compound 8m]	526

q: Please supply the value of reported λmax (absorption maximum) for the item CCCCN(CCCC)c1ccc2c(c1)Oc1cc(OC(C)=O)ccc1C21OC(=O)c2cc(C(=O)Nc3ccc(N(CC(=O)OCOC(C)=O)CC(=O)OCOC(C)=O)c(OC)c3)ccc21 (stereo not drawn) [Compound 8f]
a: 528

* * *

Experiment: Determination of photochemical properties of saponified dyes
Type: physicochemical
Conditions: after saponification; 150 mM KCl, 10 mM HEPES, 50 μM EDTA, pH = 7.22
Method: Evaluation of the photochemical properties of the active Thallium sensing species was accomplished by saponifying 10 μL of each pro-dye stock solution by incubating with 90 μL of 0.1 M KOH for 20 min at 37° C. with the exception of 8b which was treated with 1% NH4OH for 1 h at 37° C. […] Absorbance and fluorescence emission spectra were recorded on a Molecular Devices Spectromax M5 using polystyrene cuvettes with path length=1 cm at 23° C. […]
assay_metric: λmax (absorption maximum) (nm)
Numbers only, in nm.

Before answering, review these 4 worked examples.
compound	λmax (absorption maximum) (nm)
CCN(CC)c1ccc2c(c1)Oc1cc(OC(C)=O)ccc1C21OC(=O)c2cc(C(=O)Nc3ccc(N(CC(=O)OCOC(C)=O)CC(=O)OCOC(C)=O)c(OC)c3)ccc21 (stereo not shown)	525
COc1cc(NC(=O)c2ccc3c(c2)C(=O)OC32c3ccc(OC(C)=O)cc3Oc3cc(N4CCCC4)ccc32)ccc1N(CC(=O)OCOC(C)=O)CC(=O)OCOC(C)=O (stereo not shown)	525
COc1cc(NC(=O)c2ccc3c(c2)C(=O)OC32c3ccc(OC(C)=O)cc3Oc3cc(N4CCC4)ccc32)ccc1N(CC(=O)OCOC(C)=O)CC(=O)OCOC(C)=O (stereo not shown)	522
COc1cc(NC(=O)c2ccc3c(c2)C(=O)OC32c3ccc(NC(C)=O)cc3Oc3cc(OC(C)=O)ccc32)ccc1N(CC(=O)OCOC(C)=O)CC(=O)OCOC(C)=O (stereo not shown)	463

Provide λmax (absorption maximum) values for the following items, in order.
1. COc1cc(NC(=O)c2ccc3c(c2)C(=O)OC32c3ccc(Nc4ccccc4)cc3Oc3cc(OC(C)=O)ccc32)ccc1N(CC(=O)OCOC(C)=O)CC(=O)OCOC(C)=O (stereo not shown)
2. COc1cc(NC(=O)c2ccc3c(c2)C(=O)OC32c3ccc(OC(C)=O)cc3Oc3cc(N(C)C)ccc32)ccc1N(CC(=O)OCOC(C)=O)CC(=O)OCOC(C)=O (stereo not shown)
3. CCCN(CCC)c1ccc2c(c1)Oc1cc(OC(C)=O)ccc1C21OC(=O)c2cc(C(=O)Nc3ccc(N(CC(=O)OCOC(C)=O)CC(=O)OCOC(C)=O)c(OC)c3)ccc21 (stereo not shown)
4. COc1cc(NC(=O)c2ccc3c(c2)C(=O)OC32c3ccc(NC4CCCCC4)cc3Oc3cc(OC(C)=O)ccc32)ccc1N(CC(=O)OCOC(C)=O)CC(=O)OCOC(C)=O (stereo not shown)
5. CCCCNc1ccc2c(c1)Oc1cc(OC(C)=O)ccc1C21OC(=O)c2cc(C(=O)Nc3ccc(N(CC(=O)OCOC(C)=O)CC(=O)OCOC(C)=O)c(OC)c3)ccc21 (stereo not shown)
6. COc1cc(NC(=O)c2ccc3c(c2)C(=O)OC32c3ccc(N)cc3Oc3cc(OC(C)=O)ccc32)ccc1N(CC(=O)OCOC(C)=O)CC(=O)OCOC(C)=O (stereo not shown)

a:
[517, 521, 527, 514, 511, 496]
